System: BE
assay.summary: Colony formation / cell survival assay, BE colon cancer cells
Type: cell-based, human
condition.details: Homo sapiens; BE, 4 h exposure, FIG. 2; read-out: ED50 (the source's name)
Protocol: The control flasks are treated with DMSO only. […] The remaining flasks are left untouched. The cells are monitored for colony formation. […] The plating efficiency for each dish is then calculated. The cell lines HT29 and BE are both human colon cancer cell lines which are used to test the effectiveness of a given agent against cancer cell growth and proliferation. […] The HT29 and BE cell cultures were prepared and tested according to the protocol given above.
Reported pIC50 values follow for various compounds
Just so you know, pIC50 here is -log10 of the concentration in molar units; reply with that number alone.

{"columns": ["compound", "observed.measurement"],
 "data": [
  ["CC1(C)OC2=C(CC1O)C(=O)C(=O)c1ccccc12 (stereo not drawn) [3-hydroxy-β-lapachone]", 6.22]
]}

Query compound follows.
q: Entry CC1(C)CCC2=C(O1)c1ccccc1C(=O)C2=O [β-lapachone, reference compound] : reported pIC50 = ?
a: 5.10

The measurements presented in this section are drawn from patent US5824700A.
